The variants listed here are annotated with their protein stability index.
B1: GLTSCR2 (parent)
chain: YNPSFEDHQTLLSAAHEVELQRQK

Variants of: B1
protocol.summary: protein stability index of a GFP-peptide fusion (GPS, HEK-293T) (PSI 1-6); higher = more stable;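 note: lentivirally expressed fusions sorted by FACS into six bins by GFP to DsRed ratio, PSI derived from sequencing read proportions per bin multiplied by bin number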
measurement.setup: c terminus: a fixed tail appended
Reply briefly: the number, and no unit.

Take a look at these entries with their results.
[
  {
    "residue.string": "YNLSFEDHQTLLSAAHEVELQRQK [P3L]",
    "protein stability index": 4.3
  },
  {
    "residue.string": "YNPSFEDHQTLLSAAHEVELQTQK [R22T]",
    "protein stability index": 3.96
  },
  {
    "residue.string": "YNPSFEDHQTLLSAAHHVELQRQK [E17H]",
    "protein stability index": 2.78
  },
  {
    "residue.string": "YNPSFEDHQTLLSAAHEVVLQRQK [E19V]",
    "protein stability index": 2.67
  },
  {
    "residue.string": "GNPSFEDHQTLLSAAHEVELQRQK [Y1G]",
    "protein stability index": 5.36
  }
]

# input May I ask what protein stability index has been recorded for YNPSFEDHYTLLSAAHEVELQRQK [Q9Y] ?
# output 3.36

# input May I ask what protein stability index has been recorded for YNPSFEDHQTLLSAAHEVELQRWK [Q23W] ?
# output 2.95

# input May I ask what protein stability index has been recorded for YNPSFEDHQTLLSLAHEVELQRQK [A14L] ?
# output 3.09

# input May I ask what protein stability index has been recorded for YNPSFEDHQTLLSAAHEVILQRQK [E19I] ?
# output 2.85

# input May I ask what protein stability index has been recorded for YRPSFEDHQTLLSAAHEVELQRQK [N2R] ?
# output 4.29

# input May I ask what protein stability index has been recorded for YNPSFEDHQTLLSAAHEVQLQRQK [E19Q] ?
# output 3.36

# input May I ask what protein stability index has been recorded for YNPSFEDKQTLLSAAHEVELQRQK [H8K] ?
# output 3.62

# input May I ask what protein stability index has been recorded for YNPLFEDHQTLLSAAHEVELQRQK [S4L] ?
# output 3.95

# input May I ask what protein stability index has been recorded for YNYSFEDHQTLLSAAHEVELQRQK [P3Y] ?
# output 3.97
